The origin of these recorded values is patent US8450305B2.

biological target: Aurora-B (Homo sapiens, UniProt Q96GD4); construct: host or cells: Sf9 insect cells (baculovirus); assay: Radiometric protein kinase assay, Aurora-B; assay type: biochemical; conditions: 1 μM ATP; read-out: Inhibitory activity (IC50:μM) Aurora-B
Sequence (Q96GD4 whole entry): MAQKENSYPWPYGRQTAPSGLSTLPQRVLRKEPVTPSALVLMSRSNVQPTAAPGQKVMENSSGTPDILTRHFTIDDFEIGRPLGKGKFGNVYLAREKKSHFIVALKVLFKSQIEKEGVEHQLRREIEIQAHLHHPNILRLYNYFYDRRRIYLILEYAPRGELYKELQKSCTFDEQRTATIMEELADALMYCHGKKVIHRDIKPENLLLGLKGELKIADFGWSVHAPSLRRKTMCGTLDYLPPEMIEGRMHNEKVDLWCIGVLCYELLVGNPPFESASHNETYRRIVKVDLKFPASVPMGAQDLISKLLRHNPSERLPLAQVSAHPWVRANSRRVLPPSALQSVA
Observable: IC50 (µM)

Some solved cases for reference:
O=C1Cc2c(Cl)c(O)cc(O)c2C(=O)O[C@H](c2ccccc2)C/C=C/CCC(Cl)C1 (stereo partly shown) [A-3] :: 14
O=C1/C=C/CCC2OC2C[C@@H](Cc2ccccc2)OC(=O)c2c(O)cc(O)cc2C1 (stereo partly shown) [A-6] :: 16

P = COC1CC/C=C/C[C@H](c2ccccc2)OC(=O)c2c(O)cc(O)c(Cl)c2CC(=O)C1 (stereo partly shown) [A-2]
Q = CC(C)[C@@H]1CC2OC2CC/C=C/C(=O)Cc2c(Cl)c(O)cc(O)c2C(=O)O1 (stereo partly shown) [A-4]
IN: Short answer wanted: higher IC50, P or Q ? Field: selected label. Fill in the label of the entry you choose.
OUT: Q
(Q: 36 µM, P: 16 µM)
